assay.summary: soluble fraction after stress (log2 fold change); higher = more stays soluble; pooled small domains, quantitative proteomics
measurement.context: stress: pH 4
Please note: y applies when soluble fraction (log2) is -0.5 or greater, and n applies otherwise.

Please review the following examples before continuing.
HMTETNSVTINERLTLYRRSRSGRWQARVKLNTGEWHRFSTGTADFEKAKESAHRELHNVGFRAENNLPQ = y
HMGAGEQMLPKVMFAEGDRVVHKVFGEGTVVTVDRPAQTYDIQFDKLRGTRRIMFRAELEGI = n
HMNTGTTISYSDFRDRVASGTVKEVQISDDRITGVLKNDETFNTVPVGNDSGLTKLLDDNGVTYSGTP = y
HMPQFDRQAFGQRLRLLRDYREMTQQQVANFLNVDRSTYSYYENGKTEPSITVLMRMAELFSVTLDSLLNM = n
HMGVYDLIYLGYGINVEKEELVDQNISIIRRYANIFDPNGDIKGSTNPTYASNTAVLFNEAKFIIDGYD = n

Does soluble fraction (log2) meet or surpass -0.5 for `HMAYVDWYENKQPTHEEAFKKLLGRIHPGAIVLLHSTSKTNGEILDELLTKWEEMGYRFGTLDELTGN` ? n

Does soluble fraction (log2) meet or surpass -0.5 for `HMASIATLTVKALGGASDVVIRDKDGRIIWADRLPAGQSHRVFGHAPFNVAASHASRVQLSLLGKDVGRV` ? y
